# Species on record: Rattus norvegicus
# ASSAY: animal or person
# Format: functional
# CONDITION DESCRIPTION: po
# Description: Percent inhibition of rat dermal RPAR following 350 umol/kg p.o. administration.
Given measured inhibition in vivo at 350 µmol/kg, output Satisfied if it is greater than or equal to 30% and Not satisfied if not.

SMILES ENTRY	QUALITATIVE LABEL
Cc1cccnc1CSc1ccc(Br)cc1	Not satisfied
Clc1ccc(OCc2ccccn2)cc1	Satisfied
Brc1ccc(CSc2ccccn2)cc1	Satisfied
Clc1ccc(Cc2ccccn2)cc1	Satisfied
c1ccc(CSC2CCCCC2)nc1	Not satisfied
c1ccc(CCc2ccccn2)cc1	Satisfied
c1ccc(CSc2nc3ccccc3o2)nc1	Not satisfied
Brc1ccc(SCc2ccncc2)cc1	Not satisfied
Nc1ccc(SCc2ccccn2)cc1	Not satisfied
C[n+]1ccccc1CSc1ccc(Br)cc1	Not satisfied
Cc1cccc(CSc2ccc(Br)cc2)n1	Not satisfied
Brc1ccc(CSCc2ccccn2)cc1	Satisfied
CC(C)(C)c1ccc(SCc2ccccn2)cc1	Satisfied
Brc1ccc(SCc2cccnc2)cc1	Not satisfied
